- target desc: full-length human PLD2 (Homo sapiens (Human))
- Sequence (O14939 whole entry): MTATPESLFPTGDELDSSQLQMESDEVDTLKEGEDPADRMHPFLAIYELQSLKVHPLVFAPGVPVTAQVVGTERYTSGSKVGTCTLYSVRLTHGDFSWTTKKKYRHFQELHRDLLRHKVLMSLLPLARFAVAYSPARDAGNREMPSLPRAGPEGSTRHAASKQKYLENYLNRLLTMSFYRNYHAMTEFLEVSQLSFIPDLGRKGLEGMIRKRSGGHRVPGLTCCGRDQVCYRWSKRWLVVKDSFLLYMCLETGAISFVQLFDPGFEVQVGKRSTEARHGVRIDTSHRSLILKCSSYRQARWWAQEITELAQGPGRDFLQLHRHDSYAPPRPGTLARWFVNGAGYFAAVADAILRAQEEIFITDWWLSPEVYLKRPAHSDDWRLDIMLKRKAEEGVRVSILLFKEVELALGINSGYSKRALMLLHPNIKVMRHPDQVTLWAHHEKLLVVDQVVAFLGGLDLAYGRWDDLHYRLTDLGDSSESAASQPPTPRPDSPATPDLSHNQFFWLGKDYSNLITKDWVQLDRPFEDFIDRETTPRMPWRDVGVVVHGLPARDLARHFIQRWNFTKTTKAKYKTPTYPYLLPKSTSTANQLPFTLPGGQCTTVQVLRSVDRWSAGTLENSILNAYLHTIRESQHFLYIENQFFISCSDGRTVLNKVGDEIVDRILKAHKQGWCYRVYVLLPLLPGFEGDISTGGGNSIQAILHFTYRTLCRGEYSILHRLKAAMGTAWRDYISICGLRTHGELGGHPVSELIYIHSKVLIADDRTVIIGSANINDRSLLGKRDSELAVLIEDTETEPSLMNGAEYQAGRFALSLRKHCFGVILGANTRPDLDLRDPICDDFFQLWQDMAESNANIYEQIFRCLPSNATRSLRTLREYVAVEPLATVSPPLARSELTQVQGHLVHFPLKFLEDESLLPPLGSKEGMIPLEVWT
- experiment description: Evaluation of human PLD2 enzyme inhibitory activity (Amplex Red / choline oxidase fluorescence)
- Format: biochemical
- conditions: full-length human PLD2 enzyme; read-out: PLD2 IC50
pIC50: −log10 of the molar value.
measured quantity: pIC50

Problem: Report measured pIC50; entry is "Cc1ncccc1C1=NNC(=O)O[C@]12CC[C@@H](C[C@H](C)NC(=O)c1cc3ccccc3o1)CC2"
Solution: 6.66

Problem: Provide only the value of recorded pIC50 for "C[C@@H](C[C@H]1CC[C@]2(CC1)OC(=O)NN=C2c1ccc(F)cc1Br)NC(=O)c1ccccc1"
Solution: > 8.00

Problem: Identify measured pIC50 corresponding to "CNC(=O)C(=O)N[C@@H](C)C[C@H]1CC[C@]2(CC1)OC(=O)NN=C2c1cc(OCC(C)(C)O)ccc1Br"
Solution: > 8.00

Problem: Please indicate pIC50 recorded for "CNC(=O)C(=O)N[C@@H](C)C[C@H]1CC[C@]2(CC1)OC(=O)NN=C2c1cc(OC(F)(F)F)ccc1Br"
Solution: > 8.00

---

- target desc: full-length human PLD2 (Homo sapiens (Human))
- experiment description: Evaluation of human PLD2 enzyme inhibitory activity (Amplex Red / choline oxidase fluorescence)
- Format: biochemical
- conditions: full-length human PLD2 enzyme; read-out: PLD2 IC50
- Protocol: A method for measuring human PLD2 enzyme inhibitory activity using an enzyme in which a FLAG-tag is added to the N-terminus of full-length human PLD2 (1-933 amino acids) is shown below. DNA fragment in which a FLAG-tag sequence is added to the 5′-end of full-length human PLD2 was amplified by PCR method, using commercially available human PLD2 gene (Promega KK) as a template. […]
measured quantity: pIC50
In simple prose, pIC50 is minus the logarithm base ten of a concentration in moles per litre.

Problem: Specify measured pIC50 for "CNC(=O)C(=O)N[C@H](C)CN1CCC2(CC1)OC(=O)NN=C2c1ccc(F)cc1Br" .
Solution: 5.53

Problem: Report pIC50 for "CNC(=O)C(=O)N[C@@H](C)C[C@H]1CC[C@]2(CC1)OC(=O)NN=C2c1cnc(O)cc1C"
Solution: 6.27

Problem: Identify the reported pIC50 for the following entry. "CNC(=O)C(=O)N[C@@H](C)C[C@H]1CC[C@]2(CC1)OC(=O)NN=C2c1ccc(C#N)cc1Cl"
Solution: 7.82

Problem: Report measured pIC50; entry is "Cc1cc(C(=O)N[C@@H](C)[C@@H](C)N2CCC3(CC2)OC(=O)NN=C3c2ccc(F)cc2Br)[nH]n1"
Solution: 7.34

Problem: Name the recorded pIC50 of the item "C[C@@H](C[C@H]1CC[C@]2(CC1)OC(=O)NN=C2c1ccc(F)cc1Br)NC(=O)N1CCC2(CC2)C1" in your answer.
Solution: 6.84

Problem: Using the record for "C[C@@H](CN1CCC2(CC1)OC(=O)NN=C2c1cc(C#N)ccc1Br)NC(=O)C[C@@H](O)C(F)(F)F" , state its measured pIC50.
Solution: 5.73

Problem: Provide measured pIC50 value, entry: "CNC(=O)C(=O)N[C@@H](C)C[C@H]1CC[C@]2(CC1)OC(=O)NN=C2c1cccnc1"
Solution: 5.98

Problem: Identify the reported pIC50 for the following entry. "CNC(=O)C(=O)N[C@@H](C)CN1CCC2(CC1)OC(=O)NN=C2c1ccc(F)cc1Cl"
Solution: 7.74

Problem: Let me know recorded pIC50 for "CNC(=O)C(=O)N[C@@H](C)C[C@H]1CC[C@]2(CC1)OC(=O)NN=C2c1nccn1CC1CC1" , thanks.
Solution: 6.45

Problem: Please list pIC50 recorded for the compound "CONC(=O)N[C@@H](C)C[C@H]1CC[C@]2(CC1)OC(=O)NN=C2c1ccc(F)cc1I"
Solution: 6.65

Problem: Return pIC50 for the following compound: "COc1cc(C)c(C2=NNC(=O)O[C@]23CC[C@@H](C[C@H](C)NC(=O)N2CCn4nncc4C2)CC3)cn1"
Solution: 7.89

Problem: Read off the recorded pIC50 for "CNC(=O)C(=O)N[C@@H](C)CN1CCC2(CC1)OC(=O)NN=C2c1ccc(Br)cc1C(F)(F)F"
Solution: 7.47

Problem: // fetch pIC50 given entry CNC(=O)C(=O)N[C@@H](C)CC1CCC2(CC1)OC(=O)NN=C2c1ccncc1C (mixture of isomers)
Solution: 7.24

Problem: Return value of pIC50 for input "C[C@@H](C[C@H]1CC[C@]2(CC1)OC(=O)NN=C2c1ccccc1S(C)(=O)=O)NC(=O)c1cc(Cl)no1" , no commentary.
Solution: 6.60

Problem: Determine its reported pIC50: "C[C@@H](CN1CCC2(CC1)OC(=O)NN=C2c1ccc(F)cc1Br)NC(=O)c1cnn(C(F)(F)F)c1"
Solution: 7.85
